Target: phosphorylated BTK protein in Ramos cells (Homo sapiens)
Construct: endogenous in cells; host or cells: Ramos cells
Sequence (Q06187 whole entry): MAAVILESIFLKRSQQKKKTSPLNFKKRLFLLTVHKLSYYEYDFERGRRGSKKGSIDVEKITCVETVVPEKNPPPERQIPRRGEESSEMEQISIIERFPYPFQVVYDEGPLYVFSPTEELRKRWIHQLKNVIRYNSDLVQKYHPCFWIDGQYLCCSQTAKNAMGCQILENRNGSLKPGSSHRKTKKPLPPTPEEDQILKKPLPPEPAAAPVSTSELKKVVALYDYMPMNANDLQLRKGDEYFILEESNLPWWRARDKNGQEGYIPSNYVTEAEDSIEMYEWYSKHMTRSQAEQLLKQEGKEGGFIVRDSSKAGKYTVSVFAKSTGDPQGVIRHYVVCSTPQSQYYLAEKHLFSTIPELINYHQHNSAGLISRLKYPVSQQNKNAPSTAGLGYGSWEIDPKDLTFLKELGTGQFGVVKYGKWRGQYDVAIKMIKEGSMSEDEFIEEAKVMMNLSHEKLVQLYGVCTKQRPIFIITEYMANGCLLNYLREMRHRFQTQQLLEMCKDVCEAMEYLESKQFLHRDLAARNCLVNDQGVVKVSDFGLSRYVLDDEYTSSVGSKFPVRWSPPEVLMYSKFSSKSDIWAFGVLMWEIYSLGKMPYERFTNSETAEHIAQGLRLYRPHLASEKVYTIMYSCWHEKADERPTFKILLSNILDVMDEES
Assay: Inhibitory activity against B-cell activation using Ramos cells (BTK phosphorylation)
Format: cell-based
Conditions: anti-human IgM stimulation, pY223 Western blotting, read-out: Phosphorylated BTK inhibitory concentration (IC50, (nM))
reportedProperty: IC50 (nM)

C=CC(=O)N1CCC[C@@H](n2nc(C(=O)Nc3nc4cc(F)ccc4o3)c3c(N)ncnc32)C1 [Example 12]
0.18
C=CC(=O)N1CCC[C@@H](n2nc(C(=O)Nc3nc4ccccc4o3)c3c(N)ncnc32)C1 [Example 13]
0.25

---

Biological target: recombinant human BTK protein (Homo sapiens, UniProt Q06187)
Construct: purchased Carna Biosciences, Inc
Sequence (Q06187 whole entry): as above
Test: Measurement of BTK inhibitory activity (in vitro)
Format: biochemical
Conditions: ATP 45 μM, 40 minutes at 25° C.
reportedProperty: IC50 (nM)

C=C(C)C(=O)N1CCC[C@@H](n2nc(C(=O)Nc3nc4cc(F)ccc4o3)c3c(N)ncnc32)C1
2.14

P = CC#CC(=O)N1CCC[C@@H](n2nc(C(=O)Nc3nc4ccccc4o3)c3c(N)ncnc32)C1
Q = C=CC(=O)N1CCC[C@@H](n2nc(C(=O)Nc3nc4cc(C#N)ccc4o3)c3c(N)ncnc32)C1
QUERY: Endpoint returns the identifier whose IC50 is numerically larger, either P or Q . Selection: enter the item's label.
RESULT: P
